# assay-system: canine TRPM8 (Canis lupus familiaris)
# assay-name: In Vitro Canine TRPM8 Functional Assay (Ca2+ fluorescence, icilin activation)
# Assay type: cell-based
# particulars: HEK293 cells stably expressing canine TRPM8; icilin activation; eight-point dose-response; read-out: IC50
Binary label based on IC50 with cut-off 30 nM: below gives class 1, not below gives class 0.

Exam item: API: query returns whether the compound falls strictly under 30 nM in IC50. Query: O=c1[nH]c(-c2ccc(S(=O)(=O)N(CCC3CC3)c3cc4ccccc4s3)cc2)ns1
Marked response: class 0

Exam item: API: query returns whether the compound falls strictly under 30 nM in IC50. Query: Cc1c(N(Cc2ccc(F)c(F)c2)S(=O)(=O)c2ccccc2)sc2ccccc12
Marked response: class 1

Exam item: API: query returns whether the compound falls strictly under 30 nM in IC50. Query: O=S1NC(c2ccc(S(=O)(=O)N(CCC3CC3)c3sc4ccccc4c3Br)cc2)=NO1 (stereo not shown)
Marked response: class 1

Exam item: API: query returns whether the compound falls strictly under 30 nM in IC50. Query: CC(=O)c1ccc(S(=O)(=O)N(CCCC(F)(F)F)c2sc3ccccc3c2C)cc1
Marked response: class 1

Exam item: API: query returns whether the compound falls strictly under 30 nM in IC50. Query: CS(=O)(=O)CS(=O)(=O)N(Cc1ccc(F)c(F)c1)c1cc2ccccc2s1
Marked response: class 0

Exam item: API: query returns whether the compound falls strictly under 30 nM in IC50. Query: O=S(=O)(c1ccccc1)N(CC12CC3CC(CC(C3)C1)C2)c1sc2ccccc2c1Br
Marked response: class 1

Exam item: API: query returns whether the compound falls strictly under 30 nM in IC50. Query: Cc1c(N(Cc2ccc(F)c(C(F)(F)F)c2)S(=O)(=O)c2cccc(C(=O)O)c2)sc2ccccc12
Marked response: class 1

Exam item: API: query returns whether the compound falls strictly under 30 nM in IC50. Query: Cc1c(N(Cc2ccc(OC(F)(F)F)cc2)S(=O)(=O)c2ccc3ncccc3c2)sc2ccccc12
Marked response: class 1

Exam item: API: query returns whether the compound falls strictly under 30 nM in IC50. Query: COCCN(c1sc2ccccc2c1Br)S(=O)(=O)c1ccc(C(=O)O)cc1
Marked response: class 0

Exam item: API: query returns whether the compound falls strictly under 30 nM in IC50. Query: O=c1[nH]c(-c2ccc(S(=O)(=O)N(Cc3ccc(F)c(C(F)(F)F)c3)c3cc4ccccc4s3)cc2)no1
Marked response: class 1

Exam item: API: query returns whether the compound falls strictly under 30 nM in IC50. Query: O=C(O)c1ccc(S(=O)(=O)N(Cc2ccc(F)c(C(F)(F)F)c2)c2cc3ccccc3s2)c(F)c1
Marked response: class 1

Exam item: API: query returns whether the compound falls strictly under 30 nM in IC50. Query: O=[N+]([O-])c1ccccc1CN(c1cc2ccccc2s1)S(=O)(=O)c1ccccc1
Marked response: class 0

Exam item: API: query returns whether the compound falls strictly under 30 nM in IC50. Query: CCCCN(c1sc2ccccc2c1C=O)S(=O)(=O)c1ccc(C(=O)OC)cc1
Marked response: class 0

Exam item: API: query returns whether the compound falls strictly under 30 nM in IC50. Query: Cc1c(N(Cc2ccc(OC(F)(F)F)cc2)S(=O)(=O)c2ccc(-n3ccnc3CN(C)C)cc2)sc2ccccc12
Marked response: class 0

Exam item: API: query returns whether the compound falls strictly under 30 nM in IC50. Query: O=C(O)c1ccc(S(=O)(=O)N(CC2CCC2)c2sc3ccccc3c2Br)cc1
Marked response: class 1

Exam item: API: query returns whether the compound falls strictly under 30 nM in IC50. Query: C=C(C)c1c(N(Cc2cc(OC)c(Cl)cc2F)S(=O)(=O)CC)sc2ccccc12
Marked response: class 1

Exam item: API: query returns whether the compound falls strictly under 30 nM in IC50. Query: COC(=O)c1ccc(S(=O)(=O)N(CCCCC(F)(F)F)c2sc3ccccc3c2Cl)cc1
Marked response: class 0

Exam item: API: query returns whether the compound falls strictly under 30 nM in IC50. Query: O=C(O)c1ccc(S(=O)(=O)N(CCCC(F)(F)F)c2sc3ccccc3c2Br)cc1
Marked response: class 1

Exam item: API: query returns whether the compound falls strictly under 30 nM in IC50. Query: Cc1c(N(CCC(F)(F)F)S(C)(=O)=O)sc2ccccc12
Marked response: class 0

Exam item: API: query returns whether the compound falls strictly under 30 nM in IC50. Query: Cc1c(N(Cc2ccc(F)c(C(F)(F)F)c2)S(=O)(=O)c2cccc(C(=O)O)c2)sc2cc(F)ccc12
Marked response: class 1

Exam item: API: query returns whether the compound falls strictly under 30 nM in IC50. Query: Cc1nn(C)c(C)c1S(=O)(=O)N(Cc1ccc(F)c(C(F)(F)F)c1)c1sc2ccccc2c1C
Marked response: class 1

Exam item: API: query returns whether the compound falls strictly under 30 nM in IC50. Query: Cc1c(N(Cc2ccc(F)c(C(F)(F)F)c2)S(=O)(=O)c2ccc3c(c2)OCCN3C)sc2ccccc12
Marked response: class 1

Exam item: API: query returns whether the compound falls strictly under 30 nM in IC50. Query: Cc1cccc(CN(c2cc3ccccc3s2)S(=O)(=O)c2ccccc2)c1
Marked response: class 0

Exam item: API: query returns whether the compound falls strictly under 30 nM in IC50. Query: O=S(=O)(c1ccccc1)N(Cc1cccc2cccnc12)c1sc2ccccc2c1Cl
Marked response: class 0

Exam item: API: query returns whether the compound falls strictly under 30 nM in IC50. Query: CCS(=O)(=O)N(CCC(F)(F)F)c1sc2ccccc2c1C
Marked response: class 1

Exam item: API: query returns whether the compound falls strictly under 30 nM in IC50. Query: CCCCN(c1cc2ccccc2s1)S(=O)(=O)c1ccc(-c2noc(=O)[nH]2)cc1
Marked response: class 0

---

Task for the reader: assign each of the following molecules its reported % Inh @ 0.2 (μM).
# assay-system: canine TRPM8 (Canis lupus familiaris, UniProt Q1A7N1)
# Sequence (Q1A7N1 1-1104): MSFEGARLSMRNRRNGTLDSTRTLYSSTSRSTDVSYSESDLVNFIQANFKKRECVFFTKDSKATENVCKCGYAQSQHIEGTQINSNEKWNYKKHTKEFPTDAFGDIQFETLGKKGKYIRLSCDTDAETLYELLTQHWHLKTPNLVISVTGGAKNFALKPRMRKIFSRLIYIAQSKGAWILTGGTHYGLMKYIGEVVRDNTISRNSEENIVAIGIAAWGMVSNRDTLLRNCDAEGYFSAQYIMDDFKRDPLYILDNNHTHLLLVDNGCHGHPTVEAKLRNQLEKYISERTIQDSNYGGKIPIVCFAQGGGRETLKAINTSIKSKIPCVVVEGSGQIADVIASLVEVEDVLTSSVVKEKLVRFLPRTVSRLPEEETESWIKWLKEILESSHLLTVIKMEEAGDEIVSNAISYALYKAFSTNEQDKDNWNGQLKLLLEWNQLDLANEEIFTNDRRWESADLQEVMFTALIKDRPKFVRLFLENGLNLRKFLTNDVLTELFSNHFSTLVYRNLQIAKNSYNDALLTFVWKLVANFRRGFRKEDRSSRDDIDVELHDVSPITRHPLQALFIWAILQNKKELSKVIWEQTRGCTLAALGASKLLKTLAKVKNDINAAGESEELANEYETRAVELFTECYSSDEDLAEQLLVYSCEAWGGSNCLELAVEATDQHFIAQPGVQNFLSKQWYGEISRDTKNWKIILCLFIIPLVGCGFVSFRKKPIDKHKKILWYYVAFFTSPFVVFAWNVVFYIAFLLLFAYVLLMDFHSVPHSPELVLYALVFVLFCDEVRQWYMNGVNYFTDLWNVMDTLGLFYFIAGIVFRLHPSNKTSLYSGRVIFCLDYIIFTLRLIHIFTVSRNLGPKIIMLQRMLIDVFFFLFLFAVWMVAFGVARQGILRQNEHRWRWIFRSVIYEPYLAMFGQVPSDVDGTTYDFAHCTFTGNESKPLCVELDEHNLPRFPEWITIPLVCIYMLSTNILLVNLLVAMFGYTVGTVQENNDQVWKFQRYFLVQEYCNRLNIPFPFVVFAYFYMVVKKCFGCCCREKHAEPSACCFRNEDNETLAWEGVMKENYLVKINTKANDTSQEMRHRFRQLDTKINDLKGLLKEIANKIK
# assay-name: In Vitro Canine TRPM8 Functional Assay (Ca2+ fluorescence, icilin activation)
# Type: cell-based
# particulars: compound at 0.2 μM; canine TRPM8, icilin activation
All answers are understood in %, so give the number only.

Exam item: GET /values?readout=% Inh @ 0.2 (μM)&item= NC(=O)c1ccc(S(=O)(=O)N(CCCC(F)(F)F)c2cc3ccccc3s2)cc1
Marked response: 33

Exam item: GET /values?readout=% Inh @ 0.2 (μM)&item= CCS(=O)(=O)N(Cc1ccc(F)c(C(F)(F)F)c1)c1sc2ccccc2c1CN1CCCC1
Marked response: 42

Exam item: GET /values?readout=% Inh @ 0.2 (μM)&item= NC(=O)c1ccc(S(=O)(=O)N(Cc2ccc(F)c(C(F)(F)F)c2)c2cc3ccccc3s2)cc1
Marked response: 93

Exam item: GET /values?readout=% Inh @ 0.2 (μM)&item= O=S1NC(c2ccc(S(=O)(=O)N(CCC(F)(F)F)c3sc4ccccc4c3Br)cc2)=NO1 (stereo not shown)
Marked response: 101

Exam item: GET /values?readout=% Inh @ 0.2 (μM)&item= Cc1c(N(Cc2ccc3c(c2)OCO3)S(=O)(=O)c2ccc(C(=O)O)cc2)sc2ccccc12
Marked response: 101

Exam item: GET /values?readout=% Inh @ 0.2 (μM)&item= O=S1NC(c2ccc(S(=O)(=O)N(CCC3CC3)c3sc4ccccc4c3Cl)cc2)=NO1 (stereo not shown)
Marked response: 103

Exam item: GET /values?readout=% Inh @ 0.2 (μM)&item= CC(C)(O)c1c(N(CCC2CC2)S(=O)(=O)c2ccc(C(=O)[O-])cc2)sc2ccccc12.[Na+]
Marked response: 101

---

# assay-system: canine TRPM8 (Canis lupus familiaris)
# assay-name: In Vitro Canine TRPM8 Functional Assay (Ca2+ fluorescence, icilin activation)
# Type: cell-based
# particulars: compound at 0.5 μM; canine TRPM8, icilin activation; read-out: % Inh @ 0.5
endpoint-label: inhibition at 0.5 µM (%)
All answers are understood in %, so give the number only.

Exam item: GET /values?readout=inhibition at 0.5 µM&item= CCS(=O)(=O)N(Cc1ccc(F)c(C(F)(F)F)c1)c1cc2ccccc2s1 [Compound 43]
Marked response: 94

Exam item: GET /values?readout=inhibition at 0.5 µM&item= CC(C)(C)OC(=O)NCCN(c1sc2ccccc2c1Cl)S(=O)(=O)c1ccccc1 [Compound 86]
Marked response: 101

Exam item: GET /values?readout=inhibition at 0.5 µM&item= O=S(=O)(c1ccccn1)N(Cc1ccc(F)c(F)c1)c1cc2ccccc2s1 [Compound 9]
Marked response: 98

Exam item: GET /values?readout=inhibition at 0.5 µM&item= Cc1c(N(Cc2ccc(F)c(F)c2)S(=O)(=O)c2cccc3cccnc23)sc2ccccc12 [Compound 20]
Marked response: 98

Exam item: GET /values?readout=inhibition at 0.5 µM&item= O=C(O)c1cccc(S(=O)(=O)N(Cc2ccc(F)c(C(F)(F)F)c2)c2sc3ccccc3c2Br)c1 [Compound 293]
Marked response: 101

Exam item: GET /values?readout=inhibition at 0.5 µM&item= O=S(=O)(c1ccccc1)N(Cc1cccnc1)c1sc2ccccc2c1Br [Compound 169]
Marked response: 98

Exam item: GET /values?readout=inhibition at 0.5 µM&item= COc1ccccc1CN(c1sc2ccccc2c1Br)S(=O)(=O)c1ccccc1 [Compound 160]
Marked response: 97

Exam item: GET /values?readout=inhibition at 0.5 µM&item= O=S(=O)(c1ccccc1)N(Cc1ccc(Cl)cc1)c1sc2ccccc2c1Br [Compound 159]
Marked response: 98

Exam item: GET /values?readout=inhibition at 0.5 µM&item= CCS(=O)(=O)N(Cc1ccc(OC(F)(F)F)cc1)c1sc2ccccc2c1C [Compound 42]
Marked response: 100

Exam item: GET /values?readout=inhibition at 0.5 µM&item= O=S(=O)(c1ccccc1)N(Cc1ccccc1OC(F)(F)F)c1sc2ccccc2c1Br [Compound 172]
Marked response: 98
